# MEASUREMENT PROTOCOL: qHTS assay for identifying genotoxic compounds that show differential cytotoxicity against isogenic chicken DT40 cell lines with known DNA damage response pathways - wild type cell line (AID 743012); note: nearly all actives have a fitted effect of over 60% in size
# TEST CONTEXT: DT40 wild type chicken cells viability, CellTiter-Glo, 40 h; series mostly up to 68.4 µM
# Description: U.S. Tox21 Program National Center for Advancing Translational Sciences [NCATS] NIH Chemical Genomics Center [NCGC] U.S. Environmental Protection Agency [EPA] National Institutes of Environmental Health Sciences [NIEHS] National Toxicology Program [NTP] U.S. Food and Drug Administration [FDA] Tox21 Assay Overview: DNA repair pathways play a critical role in cellular homeostasis by repairing DNA damage induced by endogenous processes and xenobiotics. […]
Results filed as inconclusive are left out. The source made the active and inactive calls. Calls come from the whole dose curve; as a rule, active = well fitted cell-killing curve with a large enough effect in the repeat runs; inconclusive = weak or mixed curves, or effect the other way; inactive = no such curve, though single readings can be large or run the other way.
In this exercise, the only acceptable responses are active, inactive

Example results:
N[C@@H](C(=O)N[C@@H]1C(=O)N2C(C(=O)O)=C(Cl)CC[C@H]12)c1ccccc1    inactive
C=C[C@]1(C)C[C@@H](OC(=O)CSC(C)(C)CNC(=O)[C@H](N)C(C)C)[C@]2(C)[C@H](C)CC[C@]3(CCC(=O)[C@H]32)[C@@H](C)[C@@H]1O    active
Cc1ccccc1OCC(O)CNCCOc1ccc(C(N)=O)cc1 (stereo unspecified)    inactive
CCCCCCCCCCCCCCCC(=O)OCC(COC(=O)CCCCCCCCCCCCCCC)OC(=O)CCCCCCCCCCCCCCC    inactive
CC1=C[C@H](O)CC(C)(C)[C@H]1/C=C/C(C)=C/C=C/C(C)=C/C=C/C=C(C)/C=C/C=C(C)/C=C/C1=C(C)C[C@@H](O)CC1(C)C    active

Next up:
Hi team, can someone confirm the assay call for CC(CN1c2ccccc2Sc2ccc(S(=O)(=O)N(C)C)cc21)N(C)C (stereo unspecified) ?
active

----------
# MEASUREMENT PROTOCOL: qHTS assay for identifying genotoxic compounds that show differential cytotoxicity against isogenic chicken DT40 cell lines with known DNA damage response pathways - Rad54/Ku70 mutant cell line (AID 743015); note: nearly all actives have a fitted effect of over 60% in size
# TEST CONTEXT: DT40 Rad54/Ku70 mutant viability, CellTiter-Glo, 40 h; series mostly up to 66.8 µM
# Excerpt: National Center for Advancing Translational Sciences [NCATS] NIH Chemical Genomics Center [NCGC] U.S. Environmental Protection Agency [EPA] National Institutes of Environmental Health Sciences [NIEHS] National Toxicology Program [NTP] U.S. Food and Drug Administration [FDA] DNA repair pathways play a critical role in cellular homeostasis by repairing DNA damage induced by endogenous processes and xenobiotics. […]
Results filed as inconclusive are left out. The source made the active and inactive calls. Calls come from the whole dose curve; as a rule, active = well fitted cell-killing curve with a large enough effect in the repeat runs; inconclusive = weak or mixed curves; inactive = no such curve, though single readings can be large or run the other way.
In this exercise, the only acceptable responses are active, inactive

Example results:
CC[C@H]1NC(=O)[C@@H](NC(=O)c2ncccc2O)[C@@H](C)OC(=O)[C@H](c2ccccc2)NC(=O)[C@@H]2CC(=O)CCN2C(=O)[C@H](Cc2ccccc2)N(C)C(=O)[C@@H]2CCCN2C1=O    inactive
CN=C1C=CC(=C(c2ccc(N(C)C)cc2)c2ccc(N(C)C)cc2)C=C1    active

Hi team, can someone confirm the assay call for `CCc1ccc(S(=O)(=O)O)cc1` ?
inactive

Hi team, can someone confirm the assay call for `Cn1nnnc1SCC1=C(C(=O)O)N2C(=O)[C@@H](NC(=O)[C@H](OC=O)c3ccccc3)[C@H]2SC1` ?
inactive

Hi team, can someone confirm the assay call for `Cc1onc(-c2ccccc2)c1C(=O)N[C@@H]1C(=O)N2[C@@H]1SC(C)(C)[C@@H]2C(=O)O` ?
inactive

Hi team, can someone confirm the assay call for `Nc1nc2[nH]cc(CCc3ccc(C(=O)N[C@@H](CCC(=O)O)C(=O)O)cc3)c2c(=O)[nH]1` ?
active

Hi team, can someone confirm the assay call for CCC(CN)CC(C)CCNCC(O)CNCC(C)CC(CC)CN (stereo not given) ?
inactive

----------
# MEASUREMENT PROTOCOL: qHTS assay for identifying genotoxic compounds that show differential cytotoxicity against isogenic chicken DT40 cell lines with known DNA damage response pathways - Rad54/Ku70 mutant cell line (AID 743015); note: nearly all actives have a fitted effect of over 60% in size
# TEST CONTEXT: DT40 Rad54/Ku70 mutant viability, CellTiter-Glo, 40 h; series mostly up to 66.8 µM
Results filed as inconclusive are left out. The source made the active and inactive calls. The call rests on the fitted dose curve; in most records, active means well fitted cell-killing curve with a large enough effect in the repeat runs; inconclusive means weak or mixed curves; inactive means no such curve, though single readings can be large or run the other way.
In this exercise, the only acceptable responses are True (active), False (inactive)

CCOc1cc(-c2nccc3cc(OC)c(OC)cc23)cc(OCC)c1OCC    True
NC(=O)OC[C@@H]1[C@H](NC(=O)/C(=N\OCC(=O)O)c2csc(N)n2)C(=O)N1S(=O)(=O)O    False
OC1OC[C@@H](O)[C@H](O)[C@@H]1O (some centres undefined)    False

Next up:
Hi team, can someone confirm the assay call for `CN[C@@H]1[C@H](O[C@H]2[C@H](O[C@H]3[C@H](O)[C@@H](O)[C@H](N=C(N)N)[C@@H](O)[C@@H]3N=C(N)N)O[C@@H](C)[C@]2(O)C=O)O[C@@H](CO)[C@H](O)[C@H]1O` ?
False

----------
# ASSAY TARGET: Nuclear receptor subfamily 1 group I member 2 (Rattus norvegicus)
# MEASUREMENT PROTOCOL: Rat pregnane X receptor (rPXR) activation by small molecules, qHTS assay (AID 1346983); note: % is set by controls: 0 for no effect and ±100 for the full control effect; nearly all actives have a fitted effect of over 20% in size
# TEST CONTEXT: rPXR luciferase reporter cells, One-Glo luminescence, 24 h; active compounds read high
Results filed as inconclusive are left out.
ENDPOINT: max activation (%)
Give just the number in %; leave the unit off.

C=CC1=C(C)C2=CC3=NC(=C(CC(=O)[O-])C4=NC(=C(C)C4=C([O-])[O-])C=c4[n-]c(c(C)c4CC)=CC1=N2)C(CCC(=O)[O-])C3C.[Cu+2].[Na+].[Na+].[Na+] (centres undefined)    -0.69
Cc1cc(/C=C/c2ccc3cc(N(C)C)ccc3[n+]2C)c(C)n1-c1ccccc1    -14
OCC(S)CS (centres undefined)    -4.08

Below: the item to evaluate.
// recorded max activation for `C[C@H](N)C(=O)N[C@@H](C)P(=O)(O)O` : -2.51

----------
# MEASUREMENT PROTOCOL: qHTS assay for small molecules that induce genotoxicity in human embryonic kidney cells expressing luciferase-tagged ATAD5 - cell viability (AID 651634); note: nearly all actives have a fitted effect of over 25% in size
# TEST CONTEXT: HEK293T ATAD5-luc cells viability, CellTiter-Fluor, 15.5 h; series mostly up to 83.3 µM
Inconclusive results are not listed. Activity calls are given as the source filed them. Calls come from the whole dose curve.
In this exercise, the only acceptable responses are active, inactive

Example results:
OC(CN1CCCCC1)c1cc(-c2ccccc2)on1 (stereo not given)    inactive
C[C@]12CC[C@@H]3c4ccc(O)cc4CC[C@H]3[C@@H]1CC[C@@H]2OP(=O)(O)O    inactive
Cc1cccc(C)c1NC(=O)NC1=CCCN1C    inactive
CCOC(=O)O[C@]1(C(=O)COC(=O)CC)CC[C@H]2[C@@H]3CCC4=CC(=O)C=C[C@]4(C)[C@H]3[C@@H](O)C[C@@]21C    inactive
O=C(NNCS(=O)(=O)O)c1ccncc1    inactive

Hi team, can someone confirm the assay call for `CCCCC/C=C\CCC(=O)N[C@H]1[C@H](Oc2c3cc4cc2Oc2ccc(cc2Cl)[C@@H](O[C@@H]2O[C@H](CO)[C@@H](O)[C@H](O)[C@H]2NC(C)=O)[C@@H]2NC(=O)[C@H](NC(=O)[C@@H]4NC(=O)[C@H]4NC(=O)[C@@H](Cc5ccc(c(Cl)c5)O3)NC(=O)[C@H](N)c3ccc(O)c(c3)Oc3cc(O)cc4c3)c3ccc(O)c(c3)-c3c(O[C@H]4O[C@H](CO)[C@@H](O)[C@H](O)[C@@H]4O)cc(O)cc3[C@@H](C(=O)O)NC2=O)O[C@H](CO)[C@@H](O)[C@@H]1O` ?
inactive

Hi team, can someone confirm the assay call for `C=CCOc1ccc(CC(=O)O)cc1Cl` ?
inactive

Hi team, can someone confirm the assay call for `CCCCC(=O)N(Cc1ccc(-c2ccccc2-c2nn[nH]n2)cc1)[C@@H](C(=O)O)C(C)C` ?
inactive

Hi team, can someone confirm the assay call for `C[C@]12C=CC(=O)N[C@@H]1CC[C@@H]1[C@@H]2CC[C@]2(C)[C@@H](C(=O)Nc3cc(C(F)(F)F)ccc3C(F)(F)F)CC[C@@H]12` ?
inactive

Hi team, can someone confirm the assay call for C/C1=C2N=C(/C=C3N=C(/C(C)=C4\[N-]C(C(CC(N)=O)C4(C)CCC(=O)NCC(C)OP(=O)([O-])OC4C(CO)OC(n5cnc6cc(C)c(C)cc65)C4O)C4(C)N=C1C(CCC(N)=O)C4(C)CC(N)=O)C(CCC(N)=O)C\3(C)C)C(CCC(N)=O)C/2(C)CC(N)=O.[CH3-].[Co+3] (stereo not given) ?
active

----------
# MEASUREMENT PROTOCOL: qHTS assay for identifying genotoxic compounds that show differential cytotoxicity against isogenic chicken DT40 cell lines with known DNA damage response pathways - Rad54/Ku70 mutant cell line (AID 743015); note: nearly all actives have a fitted effect of over 60% in size
# TEST CONTEXT: DT40 Rad54/Ku70 mutant viability, CellTiter-Glo, 40 h; series mostly up to 66.8 µM
Inconclusive results are not listed. Active and inactive are the calls of the source. The call rests on the fitted dose curve; in most records, active means well fitted cell-killing curve with a large enough effect in the repeat runs; inconclusive means weak or mixed curves; inactive means no such curve, though single readings can be large or run the other way.
In this exercise, the only acceptable responses are True (active), False (inactive)

Hi team, can someone confirm the assay call for `NC[C@@H]1O[C@H](O[C@H]2[C@@H](O)[C@H](O[C@@H]3[C@@H](O)[C@H](N)C[C@H](N)[C@H]3O[C@H]3O[C@H](CO)[C@@H](O)[C@H](O)[C@H]3N)O[C@@H]2CO)[C@H](N)[C@@H](O)[C@@H]1O` ?
False

Hi team, can someone confirm the assay call for `CCSc1ccc2c(c1)N(CCCN1CCN(C)CC1)c1ccccc1S2` ?
True

Hi team, can someone confirm the assay call for CC#CCC(C)[C@H](O)/C=C/[C@@H]1[C@H]2c3cccc(CCCC(=O)O)c3O[C@H]2C[C@H]1O (stereo partly drawn) ?
False
